tested on: Jurkat; experiment: Cytotoxicity against human Jurkat cells incubated for 48 hrs by MTT reagent based spectrophotometric analysis; type: functional, cell-based
QUANTITY_NAME: IC50

Recorded IC50 of `COc1ccc(NC2=CC(=O)c3cc4c(cc3C2=O)CCCC4(C)C)cc1` , please.
1400 nM

----------
assay: Cytotoxicity against human Lung adenocarcinoma cell line; format: functional, cell-based
pIC50: −log10 of the molar value.
QUANTITY_NAME: pIC50

Which pIC50 value is on record for CC(C)=CC[C@@H](O)C1=CC(=O)c2c(O)ccc(O)c2C1=O [SHIKONIN] ?
> 5.30

----------
test system: HCT-15; assay: Cytotoxicity against human HCT-15 cells incubated for 48 hrs by MTT assay; format: functional, cell-based; conditions: HCT-15, 48 h
QUANTITY_NAME: pIC50
Schema: pIC50 number; meaning minus log10 of the concentration expressed in molar units.

Consider the reported pIC50 for these molecules:
> print(dat)
                                   molecule  measurement.target  measurement
1  CCCCCCCCC(OCCC(C)C)c1ccc2c(c1OC)/C(=N\O)C=C/C2=N\O (stereo not drawn)              HCT-15         4.44
2  C=CC(C)(C)C(OCCCCCCO)c1cc(OC)c2c(c1OC)/C(=N\O)C=C/C2=N\O (stereo not drawn)              HCT-15         4.52

Okay, next one:
Could you share which pIC50 value was measured for C=CC(C)(C)C(SC(=O)c1cc(OC)c(OC)c(OC)c1)c1cc(OC)c2c(c1OC)/C(=N\O)C=C/C2=N\O (stereo not drawn) ?
5.44

----------
tested on: B16-F10; assay: Antiproliferative activity against mouse B16-F10 cells assessed as inhibition of cell growth incubated for 72 hrs by Sulforhodamine B assay; type: functional, cell-based; conditions: B16-F10, 72 h
QUANTITY_NAME: pIC50
Please note pIC50 is a logarithmic value: minus log10 of concentration in mol/L. Answer with that number alone.

Item under review: `CC(=O)OC[C@H]1O[C@H](n2cc(COC3=CC(=O)c4ccccc4C3=O)nn2)[C@H](OC(C)=O)[C@H](OC(C)=O)[C@H]1OC(C)=O` . Reported pIC50?
5.28

----------
tested on: U-87 MG; assay: Cytotoxicity against human U87 cells incubated for 48 hrs by MTT reagent based spectrophotometric analysis; assay type: functional, cell-based, U-87MG ATCC
QUANTITY_NAME: pIC50
# pIC50 is unitless: minus log10 of the molar concentration; print number only

Any idea what pIC50 was measured for `CC1=CC(=O)c2cccc(O)c2C1=O` ?
5.62

----------
test system: HeLa; experiment: Cytotoxicity against human HeLa cells assessed as reduction in cell viability incubated for 48 hrs by MTT assay; format: functional, cell-based
QUANTITY_NAME: IC50 (µM)
Return type: number; implicit unit µM.

Quick one: IC50 for `CO/N=C1\C(c2cc3c(cc2OC)OCO3)=CC(=O)c2cc3c(cc21)OCO3` ?
0.104

These measurements were taken from ChEMBL document CHEMBL5512632.
